- System: platelets in whole blood
- experimentalProtocol: Platelet function testing with the Hemostasis Mechanism Analyzer (HMA): clumping, sticking, clotting in whole blood
- Type: cell-based, human
- details: in vitro whole blood assay; clumping, sticking, clotting
testReadout: activity in the platelet assays (active agent or inactive)

c1cncnc1    inactive
Clc1nnnn1-c1ccccc1    inactive
C[N+](C)(C)[C@H](Cc1c[nH]c(=S)[nH]1)C(=O)[O-]    inactive

====

Some compounds, each annotated with its measured activity at 6700 µg/mL.
- System: platelets in whole blood
- experimentalProtocol: Platelet function testing with the Hemostasis Mechanism Analyzer (HMA): clumping, sticking, clotting in whole blood
- Assay type: cell-based, human
- details: Homo sapiens, Platelet; Dosage (mg/ml) 6.7; 0 dosage = 100; read-out: % clot time increase
Use % as the unit, but write only the number.

Worked examples follow.
Cn1cncn1    105
Cc1ncsc1C    106
CSc1nnn[nH]1    297
COc1ccc(-c2nnn[nH]2)cc1    102
CCCCC[C@H](O)CC(=O)CCc1ccc(O)c(OC)c1    102

Give the reported activity at 6700 µg/mL for `FC(F)(F)c1ccc(-c2nnn[nH]2)cc1` (system: platelets in whole blood). 106

Give the reported activity at 6700 µg/mL for `COCCc1nn[nH]n1` (system: platelets in whole blood). 129

Give the reported activity at 6700 µg/mL for OC(c1ccccc1)c1nnn[nH]1 (stereo not drawn) (system: platelets in whole blood). 116

Give the reported activity at 6700 µg/mL for `Cc1ncsc1CCO` (system: platelets in whole blood). 115

Hello, the source for this data is patent US9918964B2, in case you need it.
